target: T1, PSMA Fab (biotinylated (site not stated)); experiment: clonal phage ELISA on captured biotinylated PSMA Fab; competitor: PSMA antigen at saturating concentration
T1 construct: also called Anti-PSMA Fab; 006 PSMA Fab
# key: entry, value: phage binding ELISA signal (Anti-PSMA Fab, wells pre-incubated with PSMA antigen)
Enter the number alone.

Worked examples follow.
[
  {
    "Binder": "SDNWCKPEWMCVGH [Phage-2801]",
    "Numeric Result": 0.0873
  },
  {
    "Binder": "DYKWCTPPWMCDSR [Phage-2800]",
    "Numeric Result": 0.0697
  },
  {
    "Binder": "FEKWCTPQWMCNSM [Phage-2795]",
    "Numeric Result": 0.0699
  },
  {
    "Binder": "WEKWCTPSWMCSGI [Phage-2791]",
    "Numeric Result": 0.0859
  },
  {
    "Binder": "HFKWCIPPWMCLEI [Phage-2798]",
    "Numeric Result": 0.298
  },
  {
    "Binder": "VGKWCTPEWMCSGF [Phage-2789]",
    "Numeric Result": 0.0562
  }
]

Moving on to another binder below.
### Prompt Query (binder): VTNWCTPPWMCEML [Phage-2793] ; field requested: phage binding ELISA signal (Anti-PSMA Fab, wells pre-incubated with PSMA antigen)
### Response 0.213
